System Name: human mAChR M4 (Homo sapiens)
Construct: expressed in transfected cells; host or cells: CHO-K1 (American Type Culture Collection), stably expressing hM4 and Gqi5
Sequence (P08173 whole entry): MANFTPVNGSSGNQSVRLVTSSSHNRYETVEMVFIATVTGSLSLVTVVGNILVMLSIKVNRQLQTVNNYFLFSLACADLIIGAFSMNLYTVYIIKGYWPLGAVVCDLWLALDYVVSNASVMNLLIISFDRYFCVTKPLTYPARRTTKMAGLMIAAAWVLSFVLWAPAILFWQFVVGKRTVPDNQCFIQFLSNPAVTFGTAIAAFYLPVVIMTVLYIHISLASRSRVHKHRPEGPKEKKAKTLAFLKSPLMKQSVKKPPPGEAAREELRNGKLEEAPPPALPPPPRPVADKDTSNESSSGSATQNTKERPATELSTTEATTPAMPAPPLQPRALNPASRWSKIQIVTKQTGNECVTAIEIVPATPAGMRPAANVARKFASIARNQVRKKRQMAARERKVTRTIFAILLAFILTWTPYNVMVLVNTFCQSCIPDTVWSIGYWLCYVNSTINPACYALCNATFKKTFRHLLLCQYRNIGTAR
Assay Name: mAChR M4 cell-based functional assay: calcium mobilization (Fluo-4, FDSS), potentiation of EC20 acetylcholine response in hM4-Gqi5 CHO-K1 cells
Recorded Conditions: CHO-K1, % ACh maximum at 30 μM; human M4
Measured Endpoint: Emax at 30 µM (%)

Reference set, count: 5
Cc1cc2nccc(=O)n2nc1N1CCc2ncc(Nc3ccnn3C)cc2C1: 84
Cc1c(N2CCc3ncc(-c4cnn(-c5ccccn5)c4)cc3C2)nn2c(=O)cc(C(F)F)nc2c1C: 71
Cc1cc(F)cnc1-c1cnc2c(c1)CN(c1nn3c(=O)ccnc3cc1C)CC2: 72
Cc1c(N2CCc3ncc(-c4cc(F)ccc4F)cc3C2)nn2c(=O)ccnc2c1C: 70
Cc1cc(F)ccc1Nc1cnc2c(c1)CN(c1nn3c(=O)ccnc3cc1C)CC2: 90

P = Cc1cc(=O)n2nc(N3CCc4ncc(-c5ccccc5C5CC5)cc4C3)c(C)c(C)c2n1
Q = Cc1cc(=O)n2nc(N3CCc4ncc(-c5ccccc5OC(C)C)cc4C3)c(C)c(C)c2n1
Hey, between P and Q which has a smaller measured Emax at 30 µM? Write the label of whichever entry you select.
Q

Ref: patent US20250101041A1
